Test system: ED cells (E. derm NBM-6, ATCC CCL-57)
Experiment notes: cell viability (ATP, CellTiter-Glo) relative to untreated control (fraction of control); higher = less cytotoxic
Condition label: 0.25 µM; incubation time: 24h
Measurement name: cell viability
Form field (numeric): enter value without unit.

Q: Which cell viability is listed for CCC[C@@]1(CCc2ccccc2)CC(O)=C([C@H](CC)c2cccc(NS(=O)(=O)c3ccc(C(F)(F)F)cn3)c2)C(=O)O1 ?
Ans: 1.01

Q: Which cell viability is listed for CC(C)CN(C[C@@H](OP(=O)(O)O)[C@H](Cc1ccccc1)NC(=O)O[C@H]1CCOC1)S(=O)(=O)c1ccc(N)cc1 ?
Ans: 1

Q: Which cell viability is listed for COC(=O)N[C@H](C(=O)N[C@@H](Cc1ccccc1)[C@@H](O)CN(Cc1ccc(-c2ccccn2)cc1)NC(=O)[C@@H](NC(=O)OC)C(C)(C)C)C(C)(C)C ?
Ans: 1.08

Q: Which cell viability is listed for CC(C)(C)NC(=O)[C@@H]1C[C@@H]2CCCC[C@@H]2CN1C[C@@H](O)[C@H](Cc1ccccc1)NC(=O)[C@H](CC(N)=O)NC(=O)c1ccc2ccccc2n1 ?
Ans: 0.995
